# test summary: Timed organ biodistribution of [^64Cu]Cu-DOTATATE by ex vivo gamma counting
# Type: in vivo, mice
# reported conditions: mouse, lymph node, intravenous, 1.85 MBq, total radioactivity; female Apoe^-/- mice 12 weeks on Western Diet, 1 min after injection, median (IQR), N=3-8; read-out: Tissue radioactivity, lymph node
reported metric: tissue uptake at 1 min (%ID/g)
Expressed in %ID/g, but write only the number.

The compound C[C@@H](O)[C@H](NC(=O)[C@@H]1CSSC[C@H](NC(=O)[C@@H](Cc2ccccc2)NC(=O)CN2CCN(CC(=O)O)CCN(CC(=O)O)CCN(CC(=O)O)CC2)C(=O)N[C@@H](Cc2ccc(O)cc2)C(=O)N[C@H](Cc2c[nH]c3ccccc23)C(=O)N[C@@H](CCCCN)C(=O)N[C@@H]([C@@H](C)O)C(=O)N1)C(=O)O [[^64Cu]Cu-DOTATATE, metal not drawn] showed tissue uptake at 1 min equal to 2.6
